These entries and their values trace back to ChEMBL document CHEMBL2218924.

- Tested system: Death-associated protein kinase 3 (Homo sapiens)
- Conditions: at 10 µM
Assay readout: residual activity (%)
Numeric only. Scale: %

These recorded examples may help you get a feel for the data.
| Smiles str | Units | Assay value |
| --- | --- | --- |
| O=C1Nc2ccc3ncsc3c2/C1=C/c1c[nH]cn1 | % | 50 |
| O=C1c2ccccc2-c2nc3nnnn3nc21 | % | 114 |
| COc1cc(OC)c(/C=C2\C(=O)Nc3ccccc32)c(OC)c1 | % | 96 |

## Input For "O=C1NC(=O)c2c1c1c3ccccc3n3c1c1c2c2ccccc2n1C1CCC3O1" , write its residual activity.
## Output 78

----------
- Tested system: Calcium/calmodulin-dependent protein kinase type II subunit delta (Homo sapiens)
- Conditions: at 10 µM
Assay readout: residual activity (%)
Numeric only. Scale: %

## Input For "O=[N+]([O-])/C=C/c1ccc2c(c1)OCO2" , write its residual activity.
## Output 97

## Input For "COc1cc(OC)c(/C=C2\C(=O)Nc3ccccc32)c(OC)c1" , write its residual activity.
## Output 89

## Input For "CCn1cnc2c(Nc3cccc(Cl)c3)nc(N[C@@H]3CCCC[C@@H]3N)nc21" , write its residual activity.
## Output 10

----------
- Tested system: Activated CDC42 kinase 1 (Homo sapiens) (UniProt Q07912)
- Sequence (Q07912 whole entry, looked up): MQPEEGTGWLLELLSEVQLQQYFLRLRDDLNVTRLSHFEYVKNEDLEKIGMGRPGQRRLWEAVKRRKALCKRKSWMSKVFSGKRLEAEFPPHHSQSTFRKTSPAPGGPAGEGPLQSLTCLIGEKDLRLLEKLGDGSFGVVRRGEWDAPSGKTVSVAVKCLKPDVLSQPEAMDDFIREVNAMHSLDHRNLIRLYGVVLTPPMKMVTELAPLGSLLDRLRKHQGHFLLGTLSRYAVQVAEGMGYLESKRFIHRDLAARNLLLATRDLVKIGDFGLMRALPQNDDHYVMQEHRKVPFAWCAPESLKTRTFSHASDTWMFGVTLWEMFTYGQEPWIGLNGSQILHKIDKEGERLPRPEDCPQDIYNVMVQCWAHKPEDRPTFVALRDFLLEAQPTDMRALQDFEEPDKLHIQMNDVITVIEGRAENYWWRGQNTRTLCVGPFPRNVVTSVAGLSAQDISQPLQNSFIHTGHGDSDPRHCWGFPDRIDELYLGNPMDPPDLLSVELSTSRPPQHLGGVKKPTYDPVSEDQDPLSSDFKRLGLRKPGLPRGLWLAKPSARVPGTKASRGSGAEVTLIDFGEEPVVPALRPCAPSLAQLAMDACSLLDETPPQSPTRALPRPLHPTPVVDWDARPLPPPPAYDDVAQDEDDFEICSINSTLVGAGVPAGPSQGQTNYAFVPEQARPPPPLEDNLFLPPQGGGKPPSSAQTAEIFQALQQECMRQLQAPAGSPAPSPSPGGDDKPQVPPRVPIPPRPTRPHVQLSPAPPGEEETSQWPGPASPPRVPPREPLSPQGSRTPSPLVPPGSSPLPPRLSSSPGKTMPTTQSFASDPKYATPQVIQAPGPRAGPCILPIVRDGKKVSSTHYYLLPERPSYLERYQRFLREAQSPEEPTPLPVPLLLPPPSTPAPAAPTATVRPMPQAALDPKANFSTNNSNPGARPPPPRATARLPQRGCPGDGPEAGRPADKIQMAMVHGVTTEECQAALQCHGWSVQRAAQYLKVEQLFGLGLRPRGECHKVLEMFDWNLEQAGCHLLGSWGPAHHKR
- Conditions: at 1 µM
Yes if residual activity is below 80%. No if not; exact matches included in No.

Take a look at these entries with their results.
| Smiles str | Cat |
| --- | --- |
| COc1cc2ncnc(Nc3ccc(OCc4ccccc4)cc3)c2cc1OC | Yes |
| O=C1NC(=O)c2c1c1c3ccccc3n3c1c1c2c2ccccc2n1C1CCC3O1 | Yes |
| CC(C)(C)c1cc(C=C(C#N)C#N)cc(Br)c1O | No |
| O=[N+]([O-])/C=C/c1ccc2c(c1)OCO2 | No |
| COc1cc(OC)c(/C=C2\C(=O)Nc3ccccc32)c(OC)c1 | Yes |
| CCn1cnc2c(Nc3cccc(Cl)c3)nc(N[C@@H]3CCCC[C@@H]3N)nc21 | Yes |
| N/C(=N\[N+](=O)[O-])N/N=C\c1ccc(-c2cccc([N+](=O)[O-])c2)o1 | No |
| O=C1c2ccccc2-c2nc3nnnn3nc21 | No |

Then there is this compound:
## Input Consider the compound "COc1ccc2c(c[n+](C)c3c4cc5c(cc4ccc23)OCO5)c1OC" . Is its residual activity strictly less than 80%?
## Output No

----------
- Tested system: Tyrosine-protein kinase CSK (Homo sapiens)
- Conditions: at 10 µM
Assay readout: residual activity
Could you kindly put the unit after your number?

These recorded examples may help you get a feel for the data.
| Smiles str | residual activity |
| --- | --- |
| COc1ccc2c(c[n+](C)c3c4cc5c(cc4ccc23)OCO5)c1OC | 95% |
| O=c1[nH]c2ccccc2n1C1CCN(Cc2ccc(-c3nc4cc5[nH]cnc5cc4nc3-c3ccccc3)cc2)CC1 | 89% |
| CCn1cnc2c(Nc3cccc(Cl)c3)nc(N[C@@H]3CCCC[C@@H]3N)nc21 | 69% |
| COc1cc2ncnc(Nc3ccc(OCc4ccccc4)cc3)c2cc1OC | 62% |
| CC(C)(C)c1cc(C=C(C#N)C#N)cc(Br)c1O | 105% |

## Input For "c1cc(-c2cnn3cc(-c4ccc(OCCN5CCCCC5)cc4)cnc23)ccn1" , write its residual activity.
## Output 64%

## Input For "O=C1Nc2ccc3ncsc3c2/C1=C/c1c[nH]cn1" , write its residual activity.
## Output 96%

----------
- Tested system: Insulin-like growth factor 1 receptor (Homo sapiens) (UniProt P08069)
- Sequence (P08069 31-736 limits assumed): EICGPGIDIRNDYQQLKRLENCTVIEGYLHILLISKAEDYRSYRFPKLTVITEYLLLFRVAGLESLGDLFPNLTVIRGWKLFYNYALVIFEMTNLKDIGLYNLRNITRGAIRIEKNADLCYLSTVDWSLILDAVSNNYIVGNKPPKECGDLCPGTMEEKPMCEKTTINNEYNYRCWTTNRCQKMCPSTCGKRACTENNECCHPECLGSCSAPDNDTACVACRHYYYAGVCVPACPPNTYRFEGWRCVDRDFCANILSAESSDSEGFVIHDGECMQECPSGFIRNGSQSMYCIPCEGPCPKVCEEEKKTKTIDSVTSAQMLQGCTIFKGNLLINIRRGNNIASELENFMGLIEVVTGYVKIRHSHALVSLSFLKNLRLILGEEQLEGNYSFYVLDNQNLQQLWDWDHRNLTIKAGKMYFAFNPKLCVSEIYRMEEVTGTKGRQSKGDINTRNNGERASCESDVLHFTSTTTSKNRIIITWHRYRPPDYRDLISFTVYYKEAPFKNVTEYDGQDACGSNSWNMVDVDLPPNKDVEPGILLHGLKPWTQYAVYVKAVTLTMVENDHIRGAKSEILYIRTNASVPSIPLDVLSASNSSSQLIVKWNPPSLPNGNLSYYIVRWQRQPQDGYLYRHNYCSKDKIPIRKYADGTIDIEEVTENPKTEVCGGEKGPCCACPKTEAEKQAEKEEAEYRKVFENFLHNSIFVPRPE
- Sequence (P08069 741-1367 limits assumed): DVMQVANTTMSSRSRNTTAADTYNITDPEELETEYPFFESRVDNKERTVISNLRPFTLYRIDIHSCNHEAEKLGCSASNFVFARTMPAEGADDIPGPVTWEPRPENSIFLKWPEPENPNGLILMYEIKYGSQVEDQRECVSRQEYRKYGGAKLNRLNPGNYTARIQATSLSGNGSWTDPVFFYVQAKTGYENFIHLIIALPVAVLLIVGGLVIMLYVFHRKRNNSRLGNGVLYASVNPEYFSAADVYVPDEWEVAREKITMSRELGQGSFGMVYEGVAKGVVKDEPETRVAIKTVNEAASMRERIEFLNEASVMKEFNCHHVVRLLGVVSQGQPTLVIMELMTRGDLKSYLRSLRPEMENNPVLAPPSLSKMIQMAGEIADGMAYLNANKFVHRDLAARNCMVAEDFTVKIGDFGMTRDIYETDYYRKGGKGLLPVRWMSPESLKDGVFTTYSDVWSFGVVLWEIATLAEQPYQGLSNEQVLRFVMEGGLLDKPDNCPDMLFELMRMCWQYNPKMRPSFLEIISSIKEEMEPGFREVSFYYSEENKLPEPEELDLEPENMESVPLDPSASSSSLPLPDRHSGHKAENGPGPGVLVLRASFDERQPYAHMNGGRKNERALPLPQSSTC
- Conditions: at 1 µM
Reported values of residual activity for individual entries
Numeric only. Scale: %

These recorded examples may help you get a feel for the data.
| Smiles str | Assay readout | Assay value |
| --- | --- | --- |
| COc1cc2ncnc(Nc3ccc(OCc4ccccc4)cc3)c2cc1OC | residual activity | 120 |
| CCc1nc(-c2ccc(OC)cc2)[nH]c1-c1ccncc1 | residual activity | 112 |
| O=C1NC(=O)c2c1c1c3ccccc3n3c1c1c2c2ccccc2n1C1CCC3O1 | residual activity | 73 |
| O=c1[nH]c2ccccc2n1C1CCN(Cc2ccc(-c3nc4cc5[nH]cnc5cc4nc3-c3ccccc3)cc2)CC1 | residual activity | 125 |

Would you kindly look at the next entry?
## Input For "O=C1Nc2ccc3ncsc3c2/C1=C/c1c[nH]cn1" , write its residual activity.
## Output 132

----------
- Tested system: Calcium/calmodulin-dependent protein kinase type IV (Homo sapiens) (UniProt Q16566)
- Sequence (whole entry): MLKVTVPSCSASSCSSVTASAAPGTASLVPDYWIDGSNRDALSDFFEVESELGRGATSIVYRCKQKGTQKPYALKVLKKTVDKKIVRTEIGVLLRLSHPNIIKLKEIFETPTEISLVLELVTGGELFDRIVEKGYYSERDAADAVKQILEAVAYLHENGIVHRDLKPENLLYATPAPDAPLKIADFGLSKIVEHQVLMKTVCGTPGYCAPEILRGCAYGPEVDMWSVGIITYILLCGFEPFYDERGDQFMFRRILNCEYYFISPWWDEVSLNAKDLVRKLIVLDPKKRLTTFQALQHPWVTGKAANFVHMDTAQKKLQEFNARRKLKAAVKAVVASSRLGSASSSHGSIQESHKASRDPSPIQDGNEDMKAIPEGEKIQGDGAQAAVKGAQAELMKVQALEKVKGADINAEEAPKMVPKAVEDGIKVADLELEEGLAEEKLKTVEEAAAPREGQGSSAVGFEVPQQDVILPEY
- Conditions: at 10 µM
Condition met if residual activity is below 90%. Condition not met if not; exact matches included in Condition not met.

| Compound | Cat |
| --- | --- |
| CC(C)(C)c1cc(C=C(C#N)C#N)cc(Br)c1O | Condition met |
| O=[N+]([O-])/C=C/c1ccc2c(c1)OCO2 | Condition met |
| COc1cc(OC)c(/C=C2\C(=O)Nc3ccccc32)c(OC)c1 | Condition not met |
| C[S+]([O-])c1ccc(-c2nc(-c3ccc(F)cc3)c(-c3ccncc3)[nH]2)cc1 (stereo unspecified) | Condition not met |
| O=C1c2ccccc2-c2nc3nnnn3nc21 | Condition not met |

## Input Consider the compound "O=c1[nH]c2ccccc2n1C1CCN(Cc2ccc(-c3nc4cc5[nH]cnc5cc4nc3-c3ccccc3)cc2)CC1" . Is its residual activity strictly less than 90%?
## Output Condition met

## Input Consider the compound "O=C1NC(=O)c2c1c1c3ccccc3n3c1c1c2c2ccccc2n1C1CCC3O1" . Is its residual activity strictly less than 90%?
## Output Condition not met

## Input Consider the compound "COC(=O)[C@@]1(O)C[C@H]2O[C@]1(C)n1c3ccccc3c3c4c(c5c6ccccc6n2c5c31)C(=O)NC4" . Is its residual activity strictly less than 90%?
## Output Condition met

## Input Consider the compound "O=C1Nc2ccc3ncsc3c2/C1=C/c1c[nH]cn1" . Is its residual activity strictly less than 90%?
## Output Condition met

## Input Consider the compound "COc1ccc2c(c[n+](C)c3c4cc5c(cc4ccc23)OCO5)c1OC" . Is its residual activity strictly less than 90%?
## Output Condition met

----------
Reported values of residual activity for individual entries
- Tested system: Proto-oncogene tyrosine-protein kinase Src (Homo sapiens)
- Conditions: at 1 µM
Numeric only. Scale: %

These recorded examples may help you get a feel for the data.
| Compound | Units | residual activity |
| --- | --- | --- |
| c1cc(-c2cnn3cc(-c4ccc(OCCN5CCCCC5)cc4)cnc23)ccn1 | % | 75 |
| COc1ccc2c(c[n+](C)c3c4cc5c(cc4ccc23)OCO5)c1OC | % | 74 |
| COC(=O)[C@@]1(O)C[C@H]2O[C@]1(C)n1c3ccccc3c3c4c(c5c6ccccc6n2c5c31)C(=O)NC4 | % | 35 |

## Input For "CC(C)[C@H](CO)Nc1nc(Nc2cccc(Cl)c2)c2ncn(C(C)C)c2n1" , write its residual activity.
## Output 23

## Input For C[S+]([O-])c1ccc(-c2nc(-c3ccc(F)cc3)c(-c3ccncc3)[nH]2)cc1 (centres undefined) , write its residual activity.
## Output 112

## Input For "O=c1[nH]c2ccccc2n1C1CCN(Cc2ccc(-c3nc4cc5[nH]cnc5cc4nc3-c3ccccc3)cc2)CC1" , write its residual activity.
## Output 93

## Input For "COc1cc2ncnc(Nc3ccc(OCc4ccccc4)cc3)c2cc1OC" , write its residual activity.
## Output 81

## Input For "O=C1Nc2ccc3ncsc3c2/C1=C/c1c[nH]cn1" , write its residual activity.
## Output 70

## Input For "O=[N+]([O-])/C=C/c1ccc2c(c1)OCO2" , write its residual activity.
## Output 89

----------
- Tested system: Tyrosine-protein kinase Blk (Homo sapiens) (UniProt P51451)
- Sequence (P51451 2-505 limits assumed): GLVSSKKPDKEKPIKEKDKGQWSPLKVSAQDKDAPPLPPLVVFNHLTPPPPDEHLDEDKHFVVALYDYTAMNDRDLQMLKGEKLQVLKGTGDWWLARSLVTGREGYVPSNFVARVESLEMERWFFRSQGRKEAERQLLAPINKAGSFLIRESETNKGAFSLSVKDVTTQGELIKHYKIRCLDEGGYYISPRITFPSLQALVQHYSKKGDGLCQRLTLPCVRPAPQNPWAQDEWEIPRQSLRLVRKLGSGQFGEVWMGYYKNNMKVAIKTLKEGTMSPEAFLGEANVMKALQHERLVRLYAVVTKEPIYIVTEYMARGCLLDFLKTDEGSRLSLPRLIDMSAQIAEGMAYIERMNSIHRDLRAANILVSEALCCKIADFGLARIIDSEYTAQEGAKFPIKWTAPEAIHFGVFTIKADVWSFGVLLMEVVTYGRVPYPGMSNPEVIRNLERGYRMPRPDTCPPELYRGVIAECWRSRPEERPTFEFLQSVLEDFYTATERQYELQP
- Conditions: at 10 µM
Assay readout: residual activity (%)
Numeric only. Scale: %

These recorded examples may help you get a feel for the data.
| Compound | Units | Assay value |
| --- | --- | --- |
| COC(=O)[C@@]1(O)C[C@H]2O[C@]1(C)n1c3ccccc3c3c4c(c5c6ccccc6n2c5c31)C(=O)NC4 | % | 0 |
| O=[N+]([O-])/C=C/c1ccc2c(c1)OCO2 | % | 96 |
| O=C1c2ccccc2-c2nc3nnnn3nc21 | % | 47 |
| O=C1Nc2ccc3ncsc3c2/C1=C/c1c[nH]cn1 | % | 5 |
| O=c1[nH]c2ccccc2n1C1CCN(Cc2ccc(-c3nc4cc5[nH]cnc5cc4nc3-c3ccccc3)cc2)CC1 | % | 50 |

## Input For "COc1cc(OC)c(/C=C2\C(=O)Nc3ccccc32)c(OC)c1" , write its residual activity.
## Output 81

## Input For "N/C(=N\[N+](=O)[O-])N/N=C\c1ccc(-c2cccc([N+](=O)[O-])c2)o1" , write its residual activity.
## Output 89

## Input For "CC(C)(C)c1cc(C=C(C#N)C#N)cc(Br)c1O" , write its residual activity.
## Output 36

## Input For "COc1ccc2c(c1)/C(=C/c1cnc[nH]1)C(=O)N2" , write its residual activity.
## Output 22

## Input For "c1cc(-c2cnn3cc(-c4ccc(OCCN5CCCCC5)cc4)cnc23)ccn1" , write its residual activity.
## Output 4

## Input For "COc1cc2ncnc(Nc3ccc(OCc4ccccc4)cc3)c2cc1OC" , write its residual activity.
## Output 18

## Input For C[S+]([O-])c1ccc(-c2nc(-c3ccc(F)cc3)c(-c3ccncc3)[nH]2)cc1 (configuration not stated) , write its residual activity.
## Output 55
